These entries and their values trace back to PubChem BioAssay (EPA / NIEHS).

Read-out: Tissue Factor, F3 (gene 2152)
PROTOCOL_DESCRIPTION: BSK_CASM3C_TissueFactor: BioMAP Diversity Plus: CASM3C Assay for Tissue Factor Biomarker Activity (AID 2283052);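 further: cell surface tissue factor protein level read by ELISA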
PROTOCOL_CONDITIONS: primary human coronary artery smooth muscle cells; actives raise or lower the signal
Active and inactive are the calls of the source. How the source made its calls: active means hit-call score of the fitted dose curve at least 0.9, where 1 is the maximum; inactive means score below 0.9.
One label from this list, please: YES = active, NO = inactive

Solved cases (6 shown):
• CCN(CC)c1ccc(C=O)c(O)c1 = NO
• CCOC(C=C(C)CCC=C(C)C)OCC = YES
• CC(C)(C)c1cc(CCC(=O)NCCCCCCNC(=O)CCc2cc(C(C)(C)C)c(O)c(C(C)(C)C)c2)cc(C(C)(C)C)c1O = NO
• Nc1cc([N+](=O)[O-])cc(Cl)c1O = NO
• Cc1ccc(S(=O)(=O)C(I)I)cc1 = YES
• CCN(CC)c1ccc(C=O)cc1 = YES

Dear colleague, could you share the recorded outcome for C[Si](Cl)(Cl)CCC(F)(F)C(F)(F)C(F)(F)C(F)(F)C(F)(F)C(F)(F)F when you have a moment?
NO

Test call, this compound: NCC(F)(F)C(F)(F)C(F)(F)C(F)(F)C(F)(F)C(F)(F)C(F)(F)C(F)(F)F
NO

* * *

PROTOCOL_DESCRIPTION: ATG_NRF2_ARE_CIS: Attagene CIS-FACTORIAL HepG2 Assay for human Nuclear Factor Erythroid 2 Related Factor 2 (NFR2) response to Antioxidant Response Elements (ARE) (AID 2282992)
PROTOCOL_CONDITIONS: HepG2 Attagene ARE/NRF2 reporter, transcription factor activity; actives raise or lower the signal
Active and inactive are the calls of the source. Rule for the calls: active = hit-call score of the fitted dose curve at least 0.9, where 1 is the maximum; inactive = score below 0.9.
Your answer must be one of the following: active, inactive

- OCC(F)(F)C(F)(F)C(F)(F)C(F)(F)C(F)(F)C(F)(F)CO: inactive
- Oc1ccc2c(c1)CCC2: inactive
- c1ccc(C[P+](c2ccccc2)(c2ccccc2)c2ccccc2)cc1: active

Dear all, I need the recorded test outcome for CC(O)C#CC(C)O (stereo not drawn) , thank you.
active

Record lookup: outcome of this test for CCN(CC)c1ccc(C=O)c(O)c1 ?
inactive

GET /call?item= O=S(=O)(O)CCC(F)(F)C(F)(F)C(F)(F)C(F)(F)F returns the recorded outcome of this test.
inactive

Short answer needed: outcome of this test for NS(=O)(=O)C(F)(F)C(F)(F)C(F)(F)C(F)(F)C(F)(F)C(F)(F)F ?
inactive

Per the records of this test, what outcome belongs to CC(=O)C=O ?
inactive

# outcome recorded in this test, key = CCC(C)CO (stereo not drawn)
inactive

* * *

PROTOCOL_DESCRIPTION: ATG_PXRE_CIS: Attagene CIS-FACTORIAL HepG2 Assay for human Pregnane X Receptor Element (PXRE) (AID 2282957)
PROTOCOL_CONDITIONS: HepG2 Attagene CIS-FACTORIAL PXRE reporter, mRNA; actives raise or lower the signal
The source made the active and inactive calls. Rule for the calls: active = hit-call score of the fitted dose curve at least 0.9, where 1 is the maximum; inactive = score below 0.9.
Output constraint: value belongs to active, inactive

Field: example entries. Status: answers known.
• O=C=Nc1cccc2c(N=C=O)cccc12 = active
• C=CC(=O)OCCC(F)(F)C(F)(F)C(F)(F)C(F)(F)F = active
• CN1CN(C)CN(C)C1 = active
• Cc1cc(O)c(C(C)(C)C)cc1C(C)(C)C = active
• O=C(c1ccccc1)c1ccc(Cl)cc1 = active
• Cc1ccc2c(c1)OCC(=O)CO2 = active

Returns: the outcome recorded for CCC/C=C/CO in this assay.
inactive

Look up the recorded call for Cc1ccc(O)cn1 in this test.
inactive

Name the outcome recorded for O=C(O)C(F)(F)C(F)(F)C(F)(F)C(F)(F)C(F)(F)C(F)(F)C(F)F in the assay.
active
